Record: IC50 reported on RAC-alpha serine/threonine-protein kinase (Homo sapiens, UniProt P31749).
Sequence (P31749 whole entry): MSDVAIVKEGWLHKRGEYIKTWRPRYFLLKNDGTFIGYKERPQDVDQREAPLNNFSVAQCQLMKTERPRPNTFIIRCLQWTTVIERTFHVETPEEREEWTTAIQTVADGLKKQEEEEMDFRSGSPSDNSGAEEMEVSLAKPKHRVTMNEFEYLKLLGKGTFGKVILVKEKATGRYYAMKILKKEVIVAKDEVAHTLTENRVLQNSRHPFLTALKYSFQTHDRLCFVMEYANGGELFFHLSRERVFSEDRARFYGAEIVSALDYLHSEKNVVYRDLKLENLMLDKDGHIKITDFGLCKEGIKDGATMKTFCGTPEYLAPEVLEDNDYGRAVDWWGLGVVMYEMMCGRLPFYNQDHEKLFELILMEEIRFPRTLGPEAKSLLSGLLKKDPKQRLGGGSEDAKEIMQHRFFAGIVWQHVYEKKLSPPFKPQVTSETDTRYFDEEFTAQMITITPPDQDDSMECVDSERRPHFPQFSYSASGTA
Kindly answer with a numeric value in nM, unit omitted.

Before answering, review these 8 worked examples.
Clc1ccc(C(NCc2ccccc2)c2ccc(-c3ccncc3)cc2)cc1 (centres undefined)	1250
Clc1ccc(C(NC2CC2)c2ccc(-c3cn[nH]c3)cc2)cc1 (centres undefined)	480
CC(C)CNC(c1ccc(Cl)cc1)c1ccc(-c2cn[nH]c2)cc1 (centres undefined)	900
CC(C)NC(c1ccc(Cl)cc1)c1ccc(-c2ccncc2)cc1 (centres undefined)	220
Clc1ccc(C(NC2CCCCC2)c2ccc(-c3ncnc4[nH]cnc34)cc2)cc1 (centres undefined)	640
CC(C)NC(c1ccc(Cl)cc1)c1ccc(-c2cn[nH]c2)cc1 (centres undefined)	370
NCCNC(c1ccc(Cl)cc1)c1ccc(-c2cn[nH]c2)cc1 (centres undefined)	820
CC(C)(C)NC(c1ccc(Cl)cc1)c1ccc(-c2cn[nH]c2)cc1 (centres undefined)	38

Prompt line: I'd like to know its IC50. The compound in question is Clc1ccc(C(NCc2ccccc2)c2ccc(-c3cn[nH]c3)cc2)cc1 (centres undefined)
Response line: 1320
